Entries and their measured GI50 follow.
Tested on: MCF7
run-description: Growth inhibition of MCF7 cells after 4 days
Format: functional
test-conditions: Homo sapiens, MCF7, 96 h

- compound: "O=c1c2cccnc2nc2n1Cc1cc3ccccc3nc1-2 [16-AZALUOTONIN A]"
  unit-descriptor: "µM"
  value-qualifier: ">"
  GI50: 20
- compound: "O=c1c2cccc(Cl)c2nc2n1Cc1cc3ccccc3nc1-2 [16-CHLOROLUOTONIN A]"
  unit-descriptor: "µM"
  value-qualifier: "="
  GI50: 10
- compound: "CCN(CC)CCOc1ccc2nc3c(cc2c1)Cn1c-3nc2ccccc2c1=O"
  unit-descriptor: "µM"
  value-qualifier: "="
  GI50: 3
- compound: "COc1cc2nc3n(c(=O)c2cc1OC)Cc1cc2ccccc2nc1-3 [17,18-DIMETHOXYLUOTONIN A]"
  unit-descriptor: "µM"
  value-qualifier: ">"
  GI50: 20
- compound: "CC(=O)Nc1cccc2c(=O)n3c(nc12)-c1nc2ccccc2cc1C3 [16-ACETAMIDOLUOTONIN A]"
  unit-descriptor: "µM"
  value-qualifier: ">"
  GI50: 20
- compound: "COc1ccc2nc3c(cc2c1)Cn1c-3nc2ccccc2c1=O [10-METHOXYLUOTONIN A]"
  unit-descriptor: "µM"
  value-qualifier: ">"
  GI50: 20
- compound: "O=c1c2cc(O)c(O)cc2nc2n1Cc1cc3ccccc3nc1-2 [17,18-DIHYDROXYLUOTONIN A]"
  unit-descriptor: "µM"
  value-qualifier: "="
  GI50: 10
- compound: "O=c1c2ccccc2nc2n1Cc1cc3c(CN4CCOCC4)c(O)ccc3nc1-2"
  unit-descriptor: "µM"
  value-qualifier: ">"
  GI50: 20
- compound: "CN(C)CCOc1ccc2nc3c(cc2c1)Cn1c-3nc2ccccc2c1=O"
  unit-descriptor: "µM"
  value-qualifier: "="
  GI50: 2
